Values from BigSolDB 2.1

Conditions: in isobutanol, 318.15 K
property_measured: solubility (mole fraction)

Cc1c(-c2ccccc2)oc2c(C(=O)O)cccc2c1=O: 0.00458

---

Settings: in THF, 323.15 K
property_measured: solubility (mole fraction)

Cc1c(-c2ccccc2)oc2c(C(=O)O)cccc2c1=O: 0.061

---

Settings: in acetone, 303.15 K
property_measured: solubility (mole fraction)

Cc1c(-c2ccccc2)oc2c(C(=O)O)cccc2c1=O: 0.00381

---

Conditions: in DMF, 313.15 K
property_measured: solubility (mole fraction)

Cc1c(-c2ccccc2)oc2c(C(=O)O)cccc2c1=O: 0.0587

---

Conditions: in THF, 278.15 K
property_measured: solubility (mole fraction)

Cc1c(-c2ccccc2)oc2c(C(=O)O)cccc2c1=O: 0.013

---

Details: in methanol, 303.15 K
property_measured: solubility (mole fraction)

Cc1c(-c2ccccc2)oc2c(C(=O)O)cccc2c1=O: 0.00136

---

Settings: in n-butyl acetate, 303.15 K
property_measured: solubility (mole fraction)

Cc1c(-c2ccccc2)oc2c(C(=O)O)cccc2c1=O: 0.00178

---

Details: in ethyl acetate, 308.15 K
property_measured: solubility (mole fraction)

Cc1c(-c2ccccc2)oc2c(C(=O)O)cccc2c1=O: 0.00341
